Target: T1, RXFP1 receptor (UniProt Q9HBX9 1-757, limits assumed)
T1 sequence (looked up): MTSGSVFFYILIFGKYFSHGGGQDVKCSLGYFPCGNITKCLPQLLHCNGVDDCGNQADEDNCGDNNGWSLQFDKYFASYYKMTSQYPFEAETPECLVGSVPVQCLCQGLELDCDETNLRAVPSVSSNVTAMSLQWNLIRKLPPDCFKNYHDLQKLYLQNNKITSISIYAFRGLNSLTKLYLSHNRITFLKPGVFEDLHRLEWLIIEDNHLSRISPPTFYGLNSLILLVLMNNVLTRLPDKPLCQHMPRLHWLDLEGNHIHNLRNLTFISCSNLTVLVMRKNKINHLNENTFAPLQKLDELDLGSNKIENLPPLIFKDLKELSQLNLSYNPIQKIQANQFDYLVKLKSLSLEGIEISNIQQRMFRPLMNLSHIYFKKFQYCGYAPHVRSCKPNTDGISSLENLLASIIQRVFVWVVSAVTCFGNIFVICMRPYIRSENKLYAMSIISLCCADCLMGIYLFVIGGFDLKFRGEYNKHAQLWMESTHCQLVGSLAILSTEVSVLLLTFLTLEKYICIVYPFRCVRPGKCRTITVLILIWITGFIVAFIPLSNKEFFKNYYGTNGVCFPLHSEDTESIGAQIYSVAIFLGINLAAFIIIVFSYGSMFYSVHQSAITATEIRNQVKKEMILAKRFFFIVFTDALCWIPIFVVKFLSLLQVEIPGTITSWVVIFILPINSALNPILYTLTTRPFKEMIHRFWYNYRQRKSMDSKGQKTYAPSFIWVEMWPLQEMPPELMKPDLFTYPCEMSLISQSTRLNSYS
Experiment: cell-based or functional assay
*1 amine or outer side, *2 acyl side, *3 side chain or, on linkers, in order; H or OH if unused. Primed or numbered codes have the meaning given here. Side-chain parts run from the residue outwards. [ ]: non-standard residue; d: D form. The star is where a group is joined. PEG4′ = 2-[2-[2-[2-[2-aminoethoxy]ethoxy]ethoxy]ethoxy]propanoyl; γGlu = O=C(O)[C@H](CCC(=O)[*:2])N[*:1]; Stearoyl = CCCCCCCCCCCCCCCCCC(=O)*; αMeK = C[C@](N)(CCCCN)C(=O)O; Lauroyl = CCCCCCCCCCCC(=O)*; Nle = CCCC[C@H](N)C(=O)O; PEG2′ = PEG2 spacer unit; Aib = CC(C)(N)C(=O)O
Listed here are binders together with their documented EMax, OVCAR 5 cells (cAMP).
Number in %, nothing else.

Solved entries (count: 3):
- Ac-LEGREKVRAQI[Aib][Aib]EG[Nle]STWS[Aib]RKKK([PEG2′-PEG2′-γGlu-γGlu-γGlu-PEG2′-Stearoyl])-NH2 [peptide of SEQ ID NO: 98]: 99
- Ac-LEGREKVRAK(Ac)I[Aib][Aib]EG[Nle]STWS[Aib]RKK(Ac)[PEG4′][PEG4′]K([γGlu-γGlu-γGlu-Stearoyl])-NH2 [peptide of SEQ ID NO: 124]: 88
- Ac-LEGREKVRAK(Ac)I[Aib][Aib]EGQSTFS[αMeK]RAK(Ac)[PEG2′][PEG2′][PEG2′][PEG2′]K([γGlu-γGlu-γGlu-γGlu-Lauroyl])-NH2 [peptide of SEQ ID NO: 161]: 94

# ---- query binder ----
Determine from records and report EMax, OVCAR 5 cells (cAMP) for Ac-LEGREKVRAK(Ac)I[Aib][Aib]EG[Nle]STWS[Aib]RKK(Ac)[PEG4′]K([γGlu-γGlu-γGlu-Stearoyl])-NH2 [peptide of SEQ ID NO: 123] 88
